Recorded inhibition at 10 µM by entry
# TGT: human KV7.1 (Homo sapiens, UniProt P51787)
# Sequence (P51787 whole entry): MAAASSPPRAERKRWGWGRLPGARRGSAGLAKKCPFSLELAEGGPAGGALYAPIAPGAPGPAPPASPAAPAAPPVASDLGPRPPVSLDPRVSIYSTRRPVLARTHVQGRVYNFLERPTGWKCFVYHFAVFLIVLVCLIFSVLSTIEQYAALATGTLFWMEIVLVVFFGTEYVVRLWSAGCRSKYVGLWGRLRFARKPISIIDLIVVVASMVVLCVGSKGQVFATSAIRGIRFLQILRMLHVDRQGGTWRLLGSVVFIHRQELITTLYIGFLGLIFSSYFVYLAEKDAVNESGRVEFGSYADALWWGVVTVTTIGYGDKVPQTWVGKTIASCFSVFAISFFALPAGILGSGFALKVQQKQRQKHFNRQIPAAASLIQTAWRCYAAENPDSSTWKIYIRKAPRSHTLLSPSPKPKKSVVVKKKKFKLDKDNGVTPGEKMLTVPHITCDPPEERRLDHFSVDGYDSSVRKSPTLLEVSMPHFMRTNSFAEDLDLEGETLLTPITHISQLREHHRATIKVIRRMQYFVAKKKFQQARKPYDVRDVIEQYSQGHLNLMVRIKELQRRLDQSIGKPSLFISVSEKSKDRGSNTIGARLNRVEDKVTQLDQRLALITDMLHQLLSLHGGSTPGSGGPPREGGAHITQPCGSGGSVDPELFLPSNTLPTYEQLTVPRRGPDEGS
# METHOD_NOTES: KV7.1 86Rb+ efflux HTS
# Assay type: cell-based
# PARTICULARS: CHO, read-out: Average percent inhibition at 10 μM (KCNQ1)
Counter-ions that a name gives are not always drawn.
Answer with the value and then the unit.

[[record]]
compound = "CC(=O)SCC(Cc1ccccc1)C(=O)NCC(=O)OCc1ccccc1 (centres unmarked) [Racecadotril]"
test_readout = "inhibition at 10 µM"
measurement = "46.4%"


Q: Dear colleague, I am looking for the recorded inhibition at 10 µM of the following compound: Clc1ccc(COC(Cn2ccnc2)c2ccc(Cl)cc2Cl)cc1 (centres unmarked) [Econazole nitrate]
A: 85.6%

Q: Dear colleague, I am looking for the recorded inhibition at 10 µM of the following compound: Clc1ccc(C(Cn2ccnc2)OCc2csc3c(Cl)cccc23)c(Cl)c1 (centres unmarked) [Sertaconazole nitrate]
A: 58.6%

Q: Dear colleague, I am looking for the recorded inhibition at 10 µM of the following compound: CCOC1O[C@H]([C@@H](COCc2ccccc2)OCc2ccccc2)[C@H](OCc2ccccc2)[C@H]1O (some centres unmarked) [Tribenoside]
A: 48.8%

Q: Dear colleague, I am looking for the recorded inhibition at 10 µM of the following compound: COc1ccc(Cc2nccc3cc(OC)c(OC)cc23)cc1OC [Papaverine hydrochloride]
A: 45.6%

Q: Dear colleague, I am looking for the recorded inhibition at 10 µM of the following compound: NS(=O)(=O)c1cc2c(cc1Cl)NC(CC1CCCC1)NS2(=O)=O (centres unmarked) [Cyclopenthiazide]
A: 68.3%

Q: Dear colleague, I am looking for the recorded inhibition at 10 µM of the following compound: COC(=O)C1=C(C)NC(C)=C(C(=O)OCCN(C)Cc2ccccc2)C1c1cccc([N+](=O)[O-])c1 (centres unmarked) [Nicardipine hydrochloride]
A: 50.7%

Q: Dear colleague, I am looking for the recorded inhibition at 10 µM of the following compound: Clc1ccc(COC(Cn2ccnc2)c2ccc(Cl)cc2Cl)c(Cl)c1 (centres unmarked) [Miconazole]
A: 79.8%

====

# TGT: UniProtKB Q9Y5Y9
# METHOD_NOTES: Nav1.8 FLIPR HTS
# Type: cell-based
# PARTICULARS: HEK293, read-out: Average percent inhibition at 10 μM (Nav1.8)
Where a name gives a salt, the structure may show the parent alone.
Recorded inhibition at 10 µM by entry
Provide only the numeric value, understood in %.

In the examples that follow, each entry is paired with its recorded inhibition at 10 µM.
[[record]]
compound = "OC(CNCC(O)C1CCc2cc(F)ccc2O1)C1CCc2cc(F)ccc2O1 (centres unmarked) [Nebivolol hydrochloride]"
test_readout = "inhibition at 10 µM"
measurement = 82.7

[[record]]
compound = "COc1ccccc1OCCNCC(O)COc1cccc2[nH]c3ccccc3c12 (centres unmarked) [Carvedilol]"
test_readout = "inhibition at 10 µM"
measurement = 104

[[record]]
compound = "NC(=O)OCC(COC(N)=O)c1ccccc1 [Felbamate]"
test_readout = "inhibition at 10 µM"
measurement = 78.6


In the following, a different compound is considered.
Q: What inhibition at 10 µM appears in the records for this compound with UniProtKB Q9Y5Y9? CNCCCC1c2ccccc2C=Cc2ccccc21 [Protriptyline hydrochloride]
A: 80

====

# TGT: Nav1.8 (Homo sapiens, UniProt Q9Y5Y9)
# Sequence (Q9Y5Y9 whole entry): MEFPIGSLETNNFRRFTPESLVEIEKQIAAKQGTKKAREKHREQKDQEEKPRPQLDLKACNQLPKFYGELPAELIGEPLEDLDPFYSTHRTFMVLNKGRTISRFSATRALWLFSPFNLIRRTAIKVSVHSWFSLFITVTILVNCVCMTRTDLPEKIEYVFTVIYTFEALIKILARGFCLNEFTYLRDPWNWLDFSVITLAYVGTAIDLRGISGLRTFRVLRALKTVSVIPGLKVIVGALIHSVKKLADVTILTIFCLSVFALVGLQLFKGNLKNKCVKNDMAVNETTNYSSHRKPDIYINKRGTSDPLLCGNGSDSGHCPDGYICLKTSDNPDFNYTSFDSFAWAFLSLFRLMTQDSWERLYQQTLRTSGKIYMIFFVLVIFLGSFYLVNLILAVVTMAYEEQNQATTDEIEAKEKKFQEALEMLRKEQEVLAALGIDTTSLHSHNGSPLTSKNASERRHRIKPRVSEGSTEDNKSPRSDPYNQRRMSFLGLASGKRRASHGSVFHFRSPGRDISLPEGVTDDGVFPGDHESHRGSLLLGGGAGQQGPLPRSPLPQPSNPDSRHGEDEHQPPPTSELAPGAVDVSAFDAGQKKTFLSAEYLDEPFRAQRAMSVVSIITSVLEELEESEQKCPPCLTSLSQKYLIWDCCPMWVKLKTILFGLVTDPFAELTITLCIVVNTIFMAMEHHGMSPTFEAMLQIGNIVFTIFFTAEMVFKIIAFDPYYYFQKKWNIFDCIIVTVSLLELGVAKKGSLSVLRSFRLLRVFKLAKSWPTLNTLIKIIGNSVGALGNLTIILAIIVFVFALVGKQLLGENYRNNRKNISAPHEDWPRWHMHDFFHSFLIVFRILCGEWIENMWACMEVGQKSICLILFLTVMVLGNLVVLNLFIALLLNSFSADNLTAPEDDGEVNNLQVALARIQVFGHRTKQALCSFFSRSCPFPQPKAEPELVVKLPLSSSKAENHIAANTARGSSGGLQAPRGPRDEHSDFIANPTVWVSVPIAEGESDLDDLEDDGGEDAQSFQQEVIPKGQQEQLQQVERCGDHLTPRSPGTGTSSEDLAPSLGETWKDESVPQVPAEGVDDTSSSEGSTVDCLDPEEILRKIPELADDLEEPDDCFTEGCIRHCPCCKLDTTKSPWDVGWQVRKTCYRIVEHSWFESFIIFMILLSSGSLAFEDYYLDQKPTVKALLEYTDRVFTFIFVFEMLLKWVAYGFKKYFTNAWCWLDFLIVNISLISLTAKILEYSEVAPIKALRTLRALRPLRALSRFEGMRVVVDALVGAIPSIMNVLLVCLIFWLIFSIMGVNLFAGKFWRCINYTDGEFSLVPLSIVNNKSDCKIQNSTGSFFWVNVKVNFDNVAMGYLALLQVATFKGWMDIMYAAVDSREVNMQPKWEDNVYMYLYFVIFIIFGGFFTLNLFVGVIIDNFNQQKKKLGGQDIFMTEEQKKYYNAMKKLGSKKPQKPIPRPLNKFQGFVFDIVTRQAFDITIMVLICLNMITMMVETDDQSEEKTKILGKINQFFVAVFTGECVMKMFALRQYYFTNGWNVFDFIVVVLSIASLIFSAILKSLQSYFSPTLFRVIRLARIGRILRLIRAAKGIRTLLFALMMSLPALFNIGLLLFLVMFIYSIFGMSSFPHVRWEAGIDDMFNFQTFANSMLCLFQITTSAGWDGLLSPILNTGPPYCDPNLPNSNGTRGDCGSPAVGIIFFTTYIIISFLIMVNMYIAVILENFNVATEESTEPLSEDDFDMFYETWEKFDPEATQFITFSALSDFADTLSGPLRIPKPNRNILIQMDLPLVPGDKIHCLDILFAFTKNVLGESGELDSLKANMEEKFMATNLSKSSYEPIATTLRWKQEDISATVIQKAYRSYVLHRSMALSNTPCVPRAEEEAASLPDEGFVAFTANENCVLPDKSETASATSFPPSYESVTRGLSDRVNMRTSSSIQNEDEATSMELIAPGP
# METHOD_NOTES: Nav1.8 FLIPR HTS
# Format: cell-based
# PARTICULARS: HEK293, read-out: Average percent inhibition at 10 μM (Nav1.8)
Structures can show the parent of a compound that is named as a salt.
Each entry gets Criterion not met if its inhibition at 10 µM stays under 90%, and Criterion met if its inhibition at 10 µM is 90% or above.

Example cases with answers are listed next.
[[record]]
compound = "OCc1cc(C(O)CNCCCCCCOCCCCc2ccccc2)ccc1O (centres unmarked) [Salmeterol]"
label_class = "Criterion met"

[[record]]
compound = "CCN(CC)C(C)CN1c2ccccc2Sc2ccccc21 (centres unmarked) [Ethopropazine hydrochloride]"
label_class = "Criterion not met"

[[record]]
compound = "CCCCOc1cc(C(=O)NCCN(CC)CC)c2ccccc2n1 [Dibucaine]"
label_class = "Criterion not met"

[[record]]
compound = "Fc1ccc(C(c2ccc(F)cc2)N2CCN(C/C=C/c3ccccc3)CC2)cc1 [Flunarizine dihydrochloride]"
label_class = "Criterion met"

[[record]]
compound = "COc1ccc(-c2cc(=S)ss2)cc1 [Anethole-trithione]"
label_class = "Criterion not met"


Q: Form field: inhibition at 10 µM at least 90%? Entry: COc1ccc(C(=O)c2ccccc2O)c(O)c1 [Dioxybenzone]
A: Criterion met

Q: Form field: inhibition at 10 µM at least 90%? Entry: COC(=O)C1=C(C)NC(C)=C(C(=O)OCCN(C)Cc2ccccc2)C1c1cccc([N+](=O)[O-])c1 (centres unmarked) [Nicardipine hydrochloride]
A: Criterion met
